assay: AUC in CD1 mouse at 10 mg/kg, po; assay type: ADME, organism-based; set-up: dose 10 mg/kg, route oral; conditions: plasma
Measured Parameter: AUC (ng·h/mL)

- Smiles String: "NC(=O)c1cccc2[nH]c(-c3ccc([C@H]4CCCCN4)cc3F)nc12"
  AUC, ng·h/mL: 1600
- Smiles String: "NC(=O)c1cccc2[nH]c(-c3ccc([C@@H]4CCCCN4)cc3F)nc12"
  AUC, ng·h/mL: 1700
- Smiles String: "NC(=O)c1cccc2[nH]c(-c3ccc([C@H]4CCCN4)cc3F)nc12"
  AUC, ng·h/mL: 1000
- Smiles String: "NC(=O)c1cccc2[nH]c(-c3ccc([C@@H]4CCCN4)cc3F)nc12"
  AUC, ng·h/mL: 1200
